- experimentalSystem: CD19-ECD Fc fusion protein (human) (UniProt P15391)
- procedureDetails: ELISA, plates coated with CD19-ECD Fc, dose series of purified kappa fusion antibody fragment, OD450, GraphPad Prism
pEC50 reference
Please keep in mind that pEC50 is minus log10 of the molar concentration; only the number is needed.

Answered cases to consult:
{"binder": "T3C1 affinity-matured antibody fragment, kappa light chain fusion protein (scFv, V domains shown) VH: EVQLLESGGGLVQPGGSLRLSCAASGFTFSDYYMSWVRQAPGKGLEWVSGIYYDGSASYYADSVKGRFTISRDNSKNTLYLQMNSLRAEDTAVYYCAKGPLFCNDRTCSYYYAMDVWGQGTLVTVSS VL: QSVLTQPPSASGTPGQRVTISCSGGPSNIGSNAVYWYQQLPGTAPKLLIYDDNHRPSGVPDRFSGSKSGTSASLAISGLRSEDEADYYCGTWDYSLSGYVLGGGTKLTVL", "readoutValue": 8.62}
{"binder": "H10 affinity-matured antibody fragment, kappa light chain fusion protein (scFv, V domains shown) VH: EVQLLESGGGLVQPGGSLRLSCAASGFTFSDYYMSWVRQAPGKGLEWVSGIYYDGTNVYYADSVKGRFTISRDNSKNTLYLQMNSLRAEDTAVYYCAKGPLFCNDRTCSYYYAMDVWGQGTLVTVSS VL: QSVLTQPPSASGTPGQRVTISCLGGYSNIGSNAVYWYQQLPGTAPKLLIYDDNHRPSGVPDRFSGSKSGTSASLAISGLRSEDEADYYCGTWDYSLSGYVLGGGTKLTVL", "readoutValue": 8.48}
{"binder": "2F1 affinity-matured antibody fragment, kappa light chain fusion protein (scFv, V domains shown) VH: EVQLLESGGGLVQPGGSLRLSCAASGFTFSDYYMSWVRQAPGKGLEWVSGIYYDGSSQGWSSSVKGRFTISRDNSKNTLYLQMNSLRAEDTAVYYCAKGPLFCNDRTCSYYYAMDVWGQGTLVTVSS VL: QSVLTQPPSASGTPGQRVTISCYGQPSNIGSNAVYWYQQLPGTAPKLLIYDDNHRPSGVPDRFSGSKSGTSASLAISGLRSEDEADYYCGTWDYSLSGYVLGGGTKLTVL", "readoutValue": 8.80}

Query: Recorded pEC50 for C2 affinity-matured antibody fragment, kappa light chain fusion protein (scFv, V domains shown) VH: EVQLLESGGGLVQPGGSLRLSCAASGFTFSDYYMSWVRQAPGKGLEWVSGIYYDGTNQYYADSVKGRFTISRDNSKNTLYLQMNSLRAEDTAVYYCAKGPLFCNDRTCSYYYAMDVWGQGTLVTVSS VL: QSVLTQPPSASGTPGQRVTISCTGGLSNIGSNAVYWYQQLPGTAPKLLIYDDNHRPSGVPDRFSGSKSGTSASLAISGLRSEDEADYYCGTWDYSLSGYVLGGGTKLTVL , please?
Result: 8.24

Query: Quick one: pEC50 of D7 affinity-matured antibody fragment, kappa light chain fusion protein (scFv, V domains shown) VH: EVQLLESGGGLVQPGGSLRLSCAASGFTFSDYYMSWVRQAPGKGLEWVSGIYYDGTAFYYADSVKGRFTISRDNSKNTLYLQMNSLRAEDTAVYYCAKGPLFCNDRTCSYYYAMDVWGQGTLVTVSS VL: QSVLTQPPSASGTPGQRVTISCEGQPSNIGSNAVYWYQQLPGTAPKLLIYDDNHRPSGVPDRFSGSKSGTSASLAISGLRSEDEADYYCGTWDYSLSGYVLGGGTKLTVL ?
Result: 8.49

Query: Name the recorded pEC50 for E12 affinity-matured antibody fragment, kappa light chain fusion protein (scFv, V domains shown) VH: EVQLLESGGGLVQPGGSLRLSCAASGFTFSDYYMSWVRQAPGKGLEWVSGIYYDSFVPYYADSVKGRFTISRDNSKNTLYLQMNSLRAEDTAVYYCAKGPLFCNDRTCSYYYAMDVWGQGTLVTVSS VL: QSVLTQPPSASGTPGQRVTISCAGSASNIGSNAVYWYQQLPGTAPKLLIYDDNHRPSGVPDRFSGSKSGTSASLAISGLRSEDEADYYCGTWDYSLSGYVLGGGTKLTVL .
Result: 8.59

Query: Tell me the measured pEC50 of E3 affinity-matured antibody fragment, kappa light chain fusion protein (scFv, V domains shown) VH: EVQLLESGGGLVQPGGSLRLSCAASGFTFSDYYMSWVRQAPGKGLEWVSGIYYDGTAMYYADSVKGRFTISRDNSKNTLYLQMNSLRAEDTAVYYCAKGPLFCNDRTCSYYYAMDVWGQGTLVTVSS VL: QSVLTQPPSASGTPGQRVTISCSGGYSNIGSNAVYWYQQLPGTAPKLLIYDDNHRPSGVPDRFSGSKSGTSASLAISGLRSEDEADYYCGTWDYSLSGYVLGGGTKLTVL , please.
Result: 8.73

Query: GET /values?readout=pEC50&item= T3H9 affinity-matured antibody fragment, kappa light chain fusion protein (scFv, V domains shown) VH: EVQLLESGGGLVQPGGSLRLSCAASGFTFSDYYMSWVRQAPGKGLEWVSGIYYDASAEYYADSVKGRFTISRDNSKNTLYLQMNSLRAEDTAVYYCAKGPLFCNDRTCSYYYAMDVWGQGTLVTVSS VL: QSVLTQPPSASGTPGQRVTISCSGMLSNIGSNAVYWYQQLPGTAPKLLIYDDNHRPSGVPDRFSGSKSGTSASLAISGLRSEDEADYYCGTWDYSLSGYVLGGGTKLTVL
Result: 8.63

Query: Requested field: pEC50. Item: D10 affinity-matured antibody fragment, kappa light chain fusion protein (scFv, V domains shown) VH: EVQLLESGGGLVQPGGSLRLSCAASGFTFSDYYMSWVRQAPGKGLEWVSGIYYDGSAVYYADSVKGRFTISRDNSKNTLYLQMNSLRAEDTAVYYCAKGPLFCNDRTCSYYYAMDVWGQGTLVTVSS VL: QSVLTQPPSASGTPGQRVTISCWGDYSNIGSNAVYWYQQLPGTAPKLLIYDDNHRPSGVPDRFSGSKSGTSASLAISGLRSEDEADYYCGTWDYSLSGYVLGGGTKLTVL
Result: 8.61
